From: PubChem BioAssay

assay: blockers of RIG-like receptor reporter activation – cell-based, Sendai virus stimulus, luciferase, 10K MLSCN set, TLR/RLR signaling modifier project, primary screen (AID 602276); conditions: HEK293 RL24 IRF3 luciferase reporter, at 10 µM, hits give high values;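 note: firefly luciferase from ISG56 promoter only with Renilla not read in this screen; 0% = Sendai virus plus DMSO and 100% = medium plus DMSO without virus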
Measured endpoint: inhibition (%)

[[record]]
compound = "CCNc1nc(NC(C)C)nc(N(C#N)CCOc2ccc(Cl)cc2Cl)n1"
measured_endpoint = "inhibition"
reported_measurement = 15.5

[[record]]
compound = "O=C(O)CC1CCCC(c2ccccc2)C1=O (stereo unspecified)"
measured_endpoint = "inhibition"
reported_measurement = 8.33

[[record]]
compound = "CCCN1Cc2cccc(C(=O)NCc3cccs3)c2C1=O"
measured_endpoint = "inhibition"
reported_measurement = 3.53

[[record]]
compound = "O=S(=O)(NCCc1ccccc1F)c1cccc(S(=O)(=O)N2CCOCC2)c1"
measured_endpoint = "inhibition"
reported_measurement = 9.49

[[record]]
compound = "CCNC(=O)CC1C(=O)N(c2ccccc2)C(=O)N1Cc1ccc(OC)cc1 (stereo unspecified)"
measured_endpoint = "inhibition"
reported_measurement = 14.5

[[record]]
compound = "O=C(c1ccccc1)c1ccc2nc[nH]c2c1"
measured_endpoint = "inhibition"
reported_measurement = -13.6

